- System: CASKI
- assay remarks: Primary qHTS to identify gynecologic anti-cancer compounds using libraries of approved drugs and bioactive compounds (AID 1345084); note: % is set by controls: 0 for no effect and ±100 for the full control effect; nearly all actives have a fitted effect of over 55% in size
- applied conditions: Gynecologic cancer cell panel viability, ATPlite luminescence, 48 h; series mostly up to 57.5 µM
Inconclusive results are not listed. Active and inactive are the calls of the source. Calls come from the whole dose curve; as a rule, active = well fitted cell-killing curve with a large enough effect; inconclusive = small, poorly fitted or top-dose-only effect, or effect the other way; inactive = flat fitted curve, though single readings scatter.
assay metric: activity change, negative = cytotoxicity

Known activity change, negative = cytotoxicity results, listed for orientation:
N[C@@H](CSSC[C@H](N)C(=O)O)C(=O)O ... 7.1% [at 0.462 µM] (inactive)
CCOc1nc2cccc(C(=O)O)c2n1Cc1ccc(-c2ccccc2-c2nn[nH]n2)cc1 ... inactive
CCCc1c(OCCCCc2nn[nH]n2)ccc(C(C)=O)c1O ... inactive
Cc1c(O)cccc1C(=O)N[C@@H](CSc1ccccc1)[C@H](O)CN1C[C@H]2CCCC[C@H]2C[C@H]1C(=O)NC(C)(C)C ... inactive
CN(C)CCN(Cc1ccccc1)c1ccccn1 ... inactive

Specify reported activity change, negative = cytotoxicity for the molecule shown: Nc1nc2c(ncn2CCC(CO)CO)c(=O)[nH]1
inactive
